Documented fraction ligated across a set of variants
B1: minF1; the commonest letter at each place (parent)
chain: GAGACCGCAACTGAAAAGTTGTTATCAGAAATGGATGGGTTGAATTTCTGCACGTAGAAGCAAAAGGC

Variants of: B1
Assay: fraction ligated after 30 min (ligated reads / total reads); higher = more ligase activity
Conditions: with F1*subA RNA substrate (template-directed ligation), 42 °C
Lab note: jot down the number only; don't add units.

>>> df
                        biopolymer_sequence    property_label  readout_number
0  GAGACCGCAACTGAAAAGTTGTTATCAGAAATGGATGGGTTTCGTTTCTGCACGTAGAAGCAAAAGGC [G42T A43C A44G]  fraction ligated         0.00164
1  GAGACCGCAACTGAAAAGTTGTTATCAGAACTGGATGGGTTGGATTTCTGCACGTAGAAGCAAAAGGC [A31C A43G]  fraction ligated          0.0644
2  GAGACCGCAACTGAAAAGTTGTTATCAGAAATGGATAGGTTCAATTTCTGCACGTAGAAGCAAAAGGC [G37A G42C]  fraction ligated         0.00225

Then this variant:
Prompt: Assign fraction ligated to the following record: GAGACCGCAACTGAAAAGTTGTTAGCACAAATGGATGGGTTGAATTTCTGCACGTAGAAGCAAAAGGC [T25G G28C]
Response: 0.0182
